tested on: Neuregulin-1 EGF-like domain; experiment: binders of neuregulin-1 EGF-like domain, primary screen, biochemical, small-molecule microarray, 635 nm fluorescence (AID 1081); details: small-molecule microarray binding, higher = more signal;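 also: binding of the protein to compounds printed on small-molecule microarray slides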
Measurement kind: composite z-score
Just the number.

Indicate its recorded composite z-score; the compound in question is `C#CCCCON=C1C[C@@H](O)[C@@H](O)[C@@H]2[C@@H]3C(=O)N(CC)C(=O)[C@@H]3CC[C@H]12`
0.528

Indicate its recorded composite z-score; the compound in question is COC(=O)CC=C[C@@H](C)[C@@H](C=NOC(C)CN1CCCCc2nc(C)c(C)cc21)NS(=O)(=O)c1ccc(C)cc1 (stereo partly specified)
-0.776

Indicate its recorded composite z-score; the compound in question is `CC(=O)OC[C@H]1O[C@H](CCON=C(C)CCN2CCCc3nc(C)c(C)cc32)C=C[C@@H]1OC(C)=O`
1.1

Indicate its recorded composite z-score; the compound in question is `CO[C@H]1COC(=O)CCC[C@H](C)[C@H](OC)COC(=O)CC=C[C@@H]1C`
-0.291

Indicate its recorded composite z-score; the compound in question is `CO[C@H]1COC(=O)[C@H](C)COC(=O)[C@@H](OCc2ccccc2)C=C[C@@H]1C`
-0.365

Indicate its recorded composite z-score; the compound in question is `CCN1C(=O)[C@H]2[C@H]3[C@H](O)[C@H](O)CC(=NOCC=C(C)CCC=C(C)C)[C@@H]3CC[C@H]2C1=O`
0.91

Indicate its recorded composite z-score; the compound in question is COC(=O)[C@H](C)NC(=O)CCC1CC(OC(=O)NCCc2ccc(F)cc2)CC2(CCCC(COC(=O)NCC3CCCCC3)O2)O1 (stereo partly specified)
1.06

Indicate its recorded composite z-score; the compound in question is `CCN1C(=O)[C@H]2[C@H]3[C@H](O)[C@H](O)CC(=NO[C@@H]4O[C@H](COC(C)=O)[C@@H](OC(C)=O)[C@H](OC(C)=O)[C@H]4OC(C)=O)[C@@H]3CC[C@H]2C1=O`
1

Indicate its recorded composite z-score; the compound in question is `CSCC[C@@H]1NC(=O)CC=C[C@@H](C)COC(=O)[C@H](C)COC1=O`
-0.169

Indicate its recorded composite z-score; the compound in question is `CC=CC1=C(CO)[C@H](O)[C@H]2O[C@H]2[C@@H]1O`
0.592

Indicate its recorded composite z-score; the compound in question is `CC(C)=NO[C@@H](C)c1cn([C@H](CO)Cc2ccccc2)nn1`
0.442

Indicate its recorded composite z-score; the compound in question is `C[C@H]1CC[C@H]2C(=O)O[C@H](CO)CN2[C@@H]1c1ccc(Br)cc1`
-0.238

Indicate its recorded composite z-score; the compound in question is O=C1CCCC=C1C(O)c1ccc([N+](=O)[O-])cc1 (stereo unspecified)
-0.0876

Indicate its recorded composite z-score; the compound in question is `COC(=O)[C@H](CCSC)NC(=O)CC=C[C@@H](C)CO`
0.818

Indicate its recorded composite z-score; the compound in question is `CC(=O)OC[C@H]1O[C@@H](ON=C(C)C)[C@H](OC(C)=O)[C@@H](OC(C)=O)[C@@H]1OC(C)=O`
-1.47

Indicate its recorded composite z-score; the compound in question is `CCOC(=O)NN=C1C[C@@H](O)[C@@H](O)[C@@H]2[C@@H]3C(=O)N(CC)C(=O)[C@@H]3CC[C@H]12`
0.539
